Assay: clinical
Assay type: in vivo, human
Details: both sexes, human, plasma, oral; 2-mg dose daily; read-out: steady-state plasma level
Experimental: The lower limit of quantification (LLOQ) was 1 ng/ml in plasma and 2 ng/ml in urine and CSF, except for the 3‐month study where the method for CSF was more sensitive (LLOQ 0.1 ng/ml). Plasma PK parameters were calculated using actual recorded sampling times and non‐compartmental methods with Phoenix WinNonlin version 6.4 (Certara, Inc., Princeton, NJ, USA). For further details, see the Appendix Table S10 in Appendix and the accompanying clinical protocols synopsis (Appendix Table S11).
value-type: concentration at 3 months (nM)
Respond with the bare value in nM.

Exercise: I would be grateful if you could share the reported concentration at 3 months for C[C@@]1(c2nc(NC(=O)c3ncc(C(F)(F)F)cc3Cl)ccc2F)CO[C@@](C)(C(F)(F)F)C(N)=N1 [CNP520] .
Key: 23
